test system: A549 NSCLC; assay: NCI tumour cell line growth inhibition, 48 h
reportedMetric: TGI

Study these solved cases before continuing.
# TGI lookup, item C[C@@]12CCC(=O)c3coc(c31)C(=O)c1cc3c(cc12)C(=O)C=CC3=O
> 100 µM

Note, next up: O=C1OCC2=C1C(c1cccc(Cl)c1)c1cc3c(cc1N2CCO)OCCO3 (stereo unspecified)
4.35 µM

Record: Cc1ccc(C(N)=O)cc1N=NN(C)C
> 100 µM

Same again, this time with CCN(CC)N1C(=O)[N+](CC)(CC)N=C1[O-]
> 100 µM

***
State the recorded TGI for this entry: O=C(/C=C/Sc1cc(C(F)(F)F)cc(C(F)(F)F)c1)c1ccc(Cl)cc1
32.8 µM

Next record, please: Cc1cc(-c2nc3cc(F)ccc3s2)ccc1NC(=O)[C@@H](N)CCCCN
3.88 µM

What do you have for CN1CCN(C(=O)C(C)(C)c2ccc(C(=O)Nc3cn4cc(-c5ccncc5)ccc4n3)cc2)CC1 ?
> 100 µM

What about this compound? CC(=O)NCCC1CN(C(=O)/C=C/I)c2ccccc21 (stereo unspecified)
33.1 µM

Also need CC(C)CNc1nc2ncnc(N)c2[nH]1 , thanks.
> 100 µM

And the next one, COc1cccc(CCN2CCN(CCCc3ccccc3)CC2)c1 ?
> 100 µM

How about this compound: CSc1nnc(CCC(=O)Nc2c(C)cccc2C)o1
> 100 µM

###

test system: SNB-19 CNS; test: NCI tumour cell line growth inhibition, 48 h; in the data active = GI50 below about 0.43 µM; inactive = the rest
Choose the fitting class; nothing outside class 1 for active, class 0 for inactive is accepted.

Example entries begin here.
Would you mind telling me which call this test gave C[C@@]12CCC(=O)c3coc(c31)C(=O)c1cc3c(cc12)C(=O)C=CC3=O ?
class 0

And for Cc1cc([N+](=O)[O-])c(NS(=O)(=O)c2cccc(C(=O)O)c2)cc1-c1cccnc1 ?
class 0

Same again, this time with O=C(/C=C/Sc1cc(C(F)(F)F)cc(C(F)(F)F)c1)c1ccc(Cl)cc1
class 0

Proceed to C#CC#CC#CC#CC#CC#CC#CC#CCC1OCC(COC(=O)O[C@@H](C(=O)O[C@H]2C[C@@]3(O)[C@@H](OC(=O)c4ccccc4)[C@@H]4[C@]5(OC(C)=O)CO[C@@H]5C[C@H](O)[C@@]4(C)C(=O)[C@H](OC(C)=O)C(=C2C)C3(C)C)[C@@H](NC(=O)c2ccccc2)c2ccccc2)O1 (some centres not stated)
class 0

Next compound: CCCCOC(=O)N1CCN(/[N+]([O-])=N/Oc2ccc([N+](=O)[O-])cc2[N+](=O)[O-])CC1
class 0

Could you do the same for O=C1c2cc3c(cc2[C@@H]2[C@H]1c1ccc([N+](=O)[O-])cc1C(=O)N2CCCBr)OCO3 , please?
class 1

---
Assay outcome for CCNCCCn1c2c(c3ccc(Cl)cc3c1=O)C(=O)c1cc(OC)cnc1-2 : what was it?
class 0

###

system: SK-MEL-5 melanoma; experiment: NCI tumour cell line growth inhibition, 48 h
Recorded TGI split into classes c1: < 20 µM; c2: ≥ 20 µM and < 30 µM; c3: ≥ 30 µM

For the record O=S(Nc1ccccc1)c1ccc(N2CCOCC2)cc1 (stereo unspecified) , report the class its TGI corresponds to.
c3

Item: Cc1ccccc1C1OC(=O)c2ccc3ccccc3c21 (stereo unspecified)
c1

Here is the next compound: CC(=O)[CH-]C(=O)c1ccccc1.CC(=O)[CH-]C(=O)c1ccccc1.CC[O-].CC[O-].[Hf+4]
c3

Try this compound too: CC(C)(C)C(=O)OCC1C(=O)OCC1C(=O)N1Cc2cc3ccccc3nc2C1 (stereo unspecified)
c2

Same read-out for O=S(=O)(c1ccc(NC2=NC(c3ccc(O)cc3)(c3ccccc3O)c3ccccc32)cc1)c1ccc(NC2=NC(c3ccc(O)cc3)(c3ccccc3O)c3ccccc32)cc1 (stereo unspecified) ?
c3

Further cases:
Band assignment needed for Cc1cc(F)ccc1S(=O)(=O)Nc1cc(-c2c(O)ccc3ccccc23)c(O)c2ccccc12 please.
c1

How about N#CC1(C#N)NC(c2cccs2)C(C#N)(C#N)NC1c1cccs1 (stereo unspecified) ?
c3

Repeat with CCCCCCC[CH2][Sn]([CH2]CCCCCCC)([O]c1cccc2cccnc12)[O]c1cccc2cccnc12
c1

Next compound up: CCCCCCCC/C=C\CCCCCCC/C=C1\C[C@](/C=C/C(=O)OC)(CO)OC1=O
c1

Another compound to check: Cc1ccc(/C(O)=C/c2nc3ccccc3sc2=O)c(C)c1
c3

Note, next up: COc1c(O)c2c3c(cc(C)cc3c1C(C)C)OC2
c3

Same lookup for COc1ccc2c3c1OC1C(=O)C=CC4(CC2)N(C)CCC314 (stereo unspecified) , please.
c2

Now give it for O=C1NC(=O)C(C(CC(=O)c2ccc([N+](=O)[O-])cc2)c2ccccc2)C(=O)N1 (stereo unspecified) too.
c3

###

tested on: OVCAR-4 ovarian; experiment: NCI tumour cell line growth inhibition, 48 h; in the data active = GI50 below about 0.43 µM; inactive = the rest
# valid calls are 1.0 (active), 0.0 (inactive); nothing else

Worked cases, answers included:
Write down the call the test reported for this compound. Item: Cc1cc(C)nc(SC2=C(Nc3ccc(C)c(Cl)c3)C(=O)N(Cc3ccccc3)C2=O)n1
0.0

Do the same for CCNCCCn1c2c(c3ccc(Cl)cc3c1=O)C(=O)c1cc(OC)cnc1-2 please
0.0

And the next one, COc1ccc(C/C(C)=C(/c2ccc(OCCN3CCCCC3)cc2)c2ccc(OC(=O)NCc3ccccc3)cc2)cc1 ?
1.0

Moving on to the next compound: CSC1=C(N)C(=O)c2[nH]cc(CO)c2C1=N
1.0

What about O=C(Nc1cccc(-n2cc(-c3ccncc3)c(-c3ccc(Cl)c(O)c3)n2)c1)Nc1cc(C(F)(F)F)cc(C(F)(F)F)c1 ?
0.0

Continuing:
Test call, this compound: Cc1ccc(S(=O)(=O)c2c(COC(=O)c3cccc(C)c3)c(-c3ccccc3)nn2C)cc1
0.0

Now this one: CC1=C(c2cccc(O)c2)[C@H](c2ccc(OCCN3CC(CF)C3)cc2)Oc2ccc(O)cc21
0.0

Okay, and Cc1[nH]c2ccccc2c1CCCO ?
0.0

Follow-up item: NS(=O)(=O)c1ccc(/C=C/c2ccc(F)cc2)cc1
0.0

Record: Cc1cc2c(cc1Cl)SC1=NN(C)C(C)N1S2(=O)=O (configuration not stated)
0.0

Query C#CC#CC#CC#CC#CC#CC#CC#CCC1OCC(COC(=O)O[C@@H](C(=O)O[C@H]2C[C@@]3(O)[C@@H](OC(=O)c4ccccc4)[C@@H]4[C@]5(OC(C)=O)CO[C@@H]5C[C@H](O)[C@@]4(C)C(=O)[C@H](OC(C)=O)C(=C2C)C3(C)C)[C@@H](NC(=O)c2ccccc2)c2ccccc2)O1 (some centres not stated) next
0.0

Further, for COc1ccc(CCN2CC=Cn3c2nc2ccccc2c3=O)cc1 ?
1.0

###

Measured TGI, listed per entry.
test system: LOX IMVI melanoma; experiment: NCI tumour cell line growth inhibition, 48 h
Give the number; µM is assumed, so skip it.

Report TGI for Cc1cc(-c2nc3cc(F)ccc3s2)ccc1NC(=O)[C@@H](N)CCCCN please.
3.62

***
Name the recorded TGI for CC1=C(c2cccc(O)c2)[C@H](c2ccc(OCCN3CC(CF)C3)cc2)Oc2ccc(O)cc21 .
5.16

Continue with Cc1cc(NC(=O)NC(=O)c2ccccc2NC(=O)C(C)N)ccc1Oc1ncc(Br)cn1 (centres undefined)
33.5

And what about the compound C=C[C@@H](C)[C@H](NS(=O)(=O)c1ccc(C)cc1)C(=O)OCC ?
34.7

How about O=C1CCCCCCCCCCC1CN1CCCC1 (centres undefined) ?
70.7

Same question for CSC1=C(N)C(=O)c2[nH]cc(CO)c2C1=N please.
0.283

Try Cc1ccc([S@](=O)c2occc2C=O)cc1 next.
3.93

Input O=C1NC(=O)C(C(CC(=O)c2ccc([N+](=O)[O-])cc2)c2ccccc2)C(=O)N1 (centres undefined)
38.7

Next compound up: CN1CCN(C(=O)C(C)(C)c2ccc(C(=O)Nc3cn4cc(-c5ccncc5)ccc4n3)cc2)CC1
0.934

What do you have for CC1CCC/C1=C(/I)C(=O)c1ccccc1 (centres undefined) ?
92.7

Quick one: NCCCN(CCCN(C(=O)Nc1ccccc1)c1ccccc1)C(=O)Nc1ccccc1
56.6

Now consider COc1cc(OC)c(C/C=C/c2ccccc2)cc1O .
29.4

Check COc1ccc(C/C(C)=C(/c2ccc(OCCN3CCCCC3)cc2)c2ccc(OC(=O)NCc3ccccc3)cc2)cc1 too.
0.779

Now this one: O=C1/C(=C/c2ccccc2)CN(C(=O)CCN2CCOCC2)C/C1=C\c1ccccc1
2.21

###

Below, each entry is listed alongside its reported TGI.
system: SNB-75 CNS; assay: NCI tumour cell line growth inhibition, 48 h
I only need the number, in µM, no unit after it.

Example cases with answers are listed next.
Could you share what TGI was measured for C=C(C(N)=O)c1ccc([N+](=O)[O-])o1 , tested on SNB-75 CNS?
37.1

Also need O=C1C(Cl)=C(OCCCl)C(=O)c2c(O)ccc(O)c21 , thanks.
26.3

Now consider a different molecule.
Field: TGI (SNB-75 CNS). Entry: CCCCCCCC/C=C\CCCCCCC/C=C1\C[C@](/C=C/C(=O)OC)(CO)OC1=O
4.59
